activity at 40 µM values for the compounds below.
Biological target: FXa (Homo sapiens, UniProt P00742)
Sequence (P00742 235-488 limits assumed): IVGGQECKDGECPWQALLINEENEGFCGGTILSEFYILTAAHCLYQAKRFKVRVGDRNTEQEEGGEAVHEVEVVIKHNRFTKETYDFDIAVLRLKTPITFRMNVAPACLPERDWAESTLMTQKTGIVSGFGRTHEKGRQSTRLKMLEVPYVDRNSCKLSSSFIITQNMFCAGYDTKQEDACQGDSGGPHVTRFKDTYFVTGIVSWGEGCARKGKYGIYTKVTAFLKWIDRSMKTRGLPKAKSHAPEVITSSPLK
Sequence (P00742 41-179 partner limits assumed): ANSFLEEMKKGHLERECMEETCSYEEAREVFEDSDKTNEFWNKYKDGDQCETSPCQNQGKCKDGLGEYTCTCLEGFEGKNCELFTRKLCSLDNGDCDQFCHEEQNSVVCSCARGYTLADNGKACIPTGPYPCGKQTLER
Assay: Related protease inhibition: FXa, fluorogenic substrate
Format: biochemical
Conditions: fluorogenic substrate at Km, 25° C.; H1-H3 = % activity at 40 μM; read-out: IC50 (human FXa) nM

{"columns": ["compound", "system_under_test", "assay_value"],
 "data": [
  ["Cc1ccc(CNC(=O)c2nn(-c3cccc(Cl)c3)c3c2CCN(c2ccc4c(c2)C(=O)N(CCO)CC4)C3=O)cn1", "FXa (Homo sapiens, UniProt P00742)", "20 to 80%"],
  ["CCNC(=O)c1nn(-c2cccc(Cl)c2)c2c1CCN(c1cccc(N3CCC4(CC4)C3)c1)C2=O", "FXa (Homo sapiens, UniProt P00742)", "> 80%"],
  ["CCNC(=O)c1nn(-c2cccc(Cl)c2)c2c1CCN(c1cc3c(cn1)OCCN(C)C3=O)C2=O", "FXa (Homo sapiens, UniProt P00742)", "20 to 80%"],
  ["CN1CCOc2ccc(N3CCc4c(C(=O)NC56CC(O)(C5)C6)nn(-c5cccc(Cl)c5F)c4C3=O)cc2C1=O", "FXa (Homo sapiens, UniProt P00742)", "20 to 80%"],
  ["CCNC(=O)c1nn(-c2cccc(Cl)c2)c2c1CCN(c1cccc(N3CCN(C)CC3)c1)C2=O", "FXa (Homo sapiens, UniProt P00742)", "20 to 80%"],
  ["CCNC(=O)c1nn(-c2cccc(Cl)c2)c2c1CCN(c1cccc(N3CC4(COC4)CC3=O)c1)C2=O", "FXa (Homo sapiens, UniProt P00742)", "> 80%"]
]}

Enquiry: Requested read-out: activity at 40 µM. Entry: COCCNC(=O)c1nn(-c2cccc(Cl)c2)c2c1CCN(c1ccc3c(c1)C(=O)N(C)CC3)C2=O
Return: 20 to 80%

Enquiry: Requested read-out: activity at 40 µM. Entry: CCNC(=O)c1nn(-c2ccc(O)c(Cl)c2)c2c1CCN(c1ccc3c(c1)C(=O)N(C)CC3)C2=O
Return: > 80%

Enquiry: Requested read-out: activity at 40 µM. Entry: CN1CCc2ccc(N3CCc4c(C(=O)N[C@H](CO)C5CC5)nn(-c5cccc(Cl)c5)c4C3=O)cc2C1=O
Return: > 80%

Enquiry: Requested read-out: activity at 40 µM. Entry: CCNC(=O)c1nn(-c2cccc(Cl)c2)c2c1CCN(c1cccc(N3C(=O)C[C@H]4CCC[C@H]43)c1)C2=O
Return: > 80%

Enquiry: Requested read-out: activity at 40 µM. Entry: CCNC(=O)c1nn(-c2cc(C)cc(Cl)c2)c2c1CCN(c1ccc3c(c1)C(=O)N(C)CC3)C2=O
Return: 20 to 80%

Enquiry: Requested read-out: activity at 40 µM. Entry: CN1CCc2ccc(N3CCc4c(C(=O)NC5CNCC5(F)F)nn(-c5cccc(Cl)c5)c4C3=O)cc2C1=O (centres unmarked)
Return: > 80%

Enquiry: Requested read-out: activity at 40 µM. Entry: CCNC(=O)c1nn(-c2cccc(Cl)c2CO)c2c1CCN(c1ccc3c(c1)C(=O)N(C)CC3)C2=O
Return: > 80%

Enquiry: Requested read-out: activity at 40 µM. Entry: CCNC(=O)c1nn(-c2cccc(Cl)c2)c2c1CCN(c1ccc3c(c1)C(=O)N(C)C1CC3C1)C2=O
Return: 20 to 80%

Source listed as patent US20260132132A1.
